target: MAP3K12 (human); test: KINOMEscan competition binding; conditions: compound 10.0 µM
Measurement kind: kinase still bound, per cent of control (%)
The figure you give is taken to be in %; do not add the unit.

Sure, the documented kinase still bound, per cent of control for "O=c1cc(N2CCOCC2)oc2c(-c3cccc4c3sc3ccccc34)cccc12" is 90

Sure, the documented kinase still bound, per cent of control for "CNC(=O)c1cc(Oc2ccc(NC(=O)Nc3ccc(Cl)c(C(F)(F)F)c3)cc2)ccn1" is 57

Sure, the documented kinase still bound, per cent of control for "COc1ccc(N(C(=O)Oc2c(C)cccc2C)c2ccnc(Nc3ccc(N4CCN(C)CC4)cc3)n2)c(OC)c1" is 73

Sure, the documented kinase still bound, per cent of control for "O=C1NC(=O)/C(=C/c2ccc3nccc(-c4ccncc4)c3c2)S1" is 96

Sure, the documented kinase still bound, per cent of control for "Cc1n[nH]c2ccc(-c3cncc(OC[C@@H](N)Cc4c[nH]c5ccccc45)c3)cc12" is 100

Sure, the documented kinase still bound, per cent of control for "COc1cc(C(=O)N2CCC(N3CCN(C)CC3)CC2)ccc1Nc1ncc2c(n1)N(C)c1ccccc1C(=O)N2C" is 81

Sure, the documented kinase still bound, per cent of control for "C=CC(=O)Nc1ccc(CN(C(=O)Nc2c(Cl)c(OC)cc(OC)c2Cl)c2cc(Nc3ccc(N4CCN(C)CC4)cc3)ncn2)cc1" is 100

Sure, the documented kinase still bound, per cent of control for "CN(C)C/C=C/C(=O)Nc1ccc(C(=O)Nc2cccc(Nc3nccc(-c4cccnc4)n3)c2)cc1" is 74

Sure, the documented kinase still bound, per cent of control for "CS(=O)(=O)N1CCN(Cc2cc3nc(-c4cccc5[nH]ncc45)nc(N4CCOCC4)c3s2)CC1" is 100

Sure, the documented kinase still bound, per cent of control for "O=C(Nc1cccc(Nc2ncc(Br)c(NCCc3cnc[nH]3)n2)c1)N1CCCC1" is 21

Sure, the documented kinase still bound, per cent of control for "CCN(CC)CCCCNc1ncc2cc(-c3cc(OC)cc(OC)c3)c(NC(=O)NC(C)(C)C)nc2n1" is 100

Sure, the documented kinase still bound, per cent of control for "CCN1CCN(C(=O)Cc2ccc(Nc3ncc(F)c(Nc4ccc(C(=O)Nc5ccccc5Cl)cc4)n3)cc2)CC1" is 71

Sure, the documented kinase still bound, per cent of control for "C=CC(=O)Nc1cc(-n2c(=O)ccc3cnc4ccc(-c5cn[nH]c5)cc4c32)ccc1C" is 76

###

target: MAP3K4 (human); experiment: KINOMEscan competition binding; conditions: compound 10.0 µM
I'd be grateful if you could share measured kinase still bound, per cent of control for these entries.
The figure you give is taken to be in %; do not add the unit.

Sure, the documented kinase still bound, per cent of control for "NC(=O)Nc1cc(-c2cccc(F)c2)sc1C(=O)N[C@@H]1CCCNC1" is 42

Sure, the documented kinase still bound, per cent of control for "O=C(Nc1cccc(Nc2ncc(Br)c(NCCc3cnc[nH]3)n2)c1)N1CCCC1" is 47

Sure, the documented kinase still bound, per cent of control for "CCN(CC)CCCCNc1ncc2c(n1)N(C)C(=O)N(c1c(Cl)c(OC)cc(OC)c1Cl)C2" is 5.3

Sure, the documented kinase still bound, per cent of control for "COc1cc(C(=O)N2CCC(N3CCN(C)CC3)CC2)ccc1Nc1ncc2c(n1)N(C)c1ccccc1C(=O)N2C" is 100

Sure, the documented kinase still bound, per cent of control for "N#CCNC(=O)c1ccc(-c2ccnc(Nc3ccc(N4CCOCC4)cc3)n2)cc1" is 92

Sure, the documented kinase still bound, per cent of control for "C[C@@H](Oc1cc(-c2cnn(C3CCNCC3)c2)cnc1N)c1c(Cl)ccc(F)c1Cl" is 34

Sure, the documented kinase still bound, per cent of control for "COc1cc2ncn(-c3cc(OCc4ccccc4C(F)(F)F)c(C(N)=O)s3)c2cc1OC" is 90

Sure, the documented kinase still bound, per cent of control for "CNC(=O)c1ccc(Nc2cc(Nc3ccccc3S(=O)(=O)C(C)C)c3cc[nH]c3n2)nc1" is 100

Sure, the documented kinase still bound, per cent of control for "C=CC(=O)Nc1ccc(CN(C(=O)Nc2c(Cl)c(OC)cc(OC)c2Cl)c2cc(Nc3ccc(N4CCN(C)CC4)cc3)ncn2)cc1" is 10

Sure, the documented kinase still bound, per cent of control for "CCN(CC)CCCCNc1ncc2cc(-c3cc(OC)cc(OC)c3)c(NC(=O)NC(C)(C)C)nc2n1" is 100

Sure, the documented kinase still bound, per cent of control for "C=CC(=O)Nc1cc(-n2c(=O)ccc3cnc4ccc(-c5cn[nH]c5)cc4c32)ccc1C" is 100

Sure, the documented kinase still bound, per cent of control for "COc1cc2ncnc(-n3nc(-c4ccccn4)nc3N)c2cc1OC" is 100

Sure, the documented kinase still bound, per cent of control for "COCC(=O)NC/C=C/c1ccc2ncnc(Nc3ccc(Oc4ccc(C)nc4)c(C)c3)c2c1" is 97

###

molecular target: CDK16 (human); assay: KINOMEscan competition binding; conditions: compound 10.0 µM
Measurement kind: kinase still bound, per cent of control (%)
The figure you give is taken to be in %; do not add the unit.

Result for "CCN1CCN(C(=O)Cc2ccc(Nc3ncc(F)c(Nc4ccc(C(=O)Nc5ccccc5Cl)cc4)n3)cc2)CC1" , tested on CDK16 (human), kinase still bound, per cent of control: 40

Result for "COc1ccc(N(C(=O)Oc2c(C)cccc2C)c2ccnc(Nc3ccc(N4CCN(C)CC4)cc3)n2)c(OC)c1" , tested on CDK16 (human), kinase still bound, per cent of control: 98

Result for "CNC(=O)c1cc(Oc2ccc(NC(=O)Nc3ccc(Cl)c(C(F)(F)F)c3)cc2)ccn1" , tested on CDK16 (human), kinase still bound, per cent of control: 72

Result for "O=C1NC(=O)/C(=C/c2ccc3nccc(-c4ccncc4)c3c2)S1" , tested on CDK16 (human), kinase still bound, per cent of control: 71

Result for "CNC(=O)c1ccc(Nc2cc(Nc3ccccc3S(=O)(=O)C(C)C)c3cc[nH]c3n2)nc1" , tested on CDK16 (human), kinase still bound, per cent of control: 22

Result for "N#CCNC(=O)c1ccc(-c2ccnc(Nc3ccc(N4CCOCC4)cc3)n2)cc1" , tested on CDK16 (human), kinase still bound, per cent of control: 21

Result for "COc1cc(C(=O)N2CCC(N3CCN(C)CC3)CC2)ccc1Nc1ncc2c(n1)N(C)c1ccccc1C(=O)N2C" , tested on CDK16 (human), kinase still bound, per cent of control: 96

Result for "NC(=O)Nc1cc(-c2cccc(F)c2)sc1C(=O)N[C@@H]1CCCNC1" , tested on CDK16 (human), kinase still bound, per cent of control: 79

Result for "O=C(Nc1cccc(Nc2ncc(Br)c(NCCc3cnc[nH]3)n2)c1)N1CCCC1" , tested on CDK16 (human), kinase still bound, per cent of control: 40

Result for "C[C@@H](Oc1cc(-c2cnn(C3CCNCC3)c2)cnc1N)c1c(Cl)ccc(F)c1Cl" , tested on CDK16 (human), kinase still bound, per cent of control: 96

Result for "C=CC(=O)Nc1cc(-n2c(=O)ccc3cnc4ccc(-c5cn[nH]c5)cc4c32)ccc1C" , tested on CDK16 (human), kinase still bound, per cent of control: 97

Result for "CCN(CC)CCCCNc1ncc2c(n1)N(C)C(=O)N(c1c(Cl)c(OC)cc(OC)c1Cl)C2" , tested on CDK16 (human), kinase still bound, per cent of control: 100

###

biological target: TTK (human); assay: KINOMEscan competition binding; details: compound 10.0 µM
I'd be grateful if you could share measured kinase still bound, per cent of control for these entries.
The figure you give is taken to be in %; do not add the unit.

Sure, the documented kinase still bound, per cent of control for "COc1cc(C(=O)N2CCC(N3CCN(C)CC3)CC2)ccc1Nc1ncc2c(n1)N(C)c1ccccc1C(=O)N2C" is 28

Sure, the documented kinase still bound, per cent of control for "C[C@@H](Oc1cc(-c2cnn(C3CCNCC3)c2)cnc1N)c1c(Cl)ccc(F)c1Cl" is 50

Sure, the documented kinase still bound, per cent of control for "COc1cc2ncnc(-n3nc(-c4ccccn4)nc3N)c2cc1OC" is 20

Sure, the documented kinase still bound, per cent of control for "CCN(CC)CCCCNc1ncc2cc(-c3cc(OC)cc(OC)c3)c(NC(=O)NC(C)(C)C)nc2n1" is 100

Sure, the documented kinase still bound, per cent of control for "NC(=O)Nc1cc(-c2cccc(F)c2)sc1C(=O)N[C@@H]1CCCNC1" is 12

Sure, the documented kinase still bound, per cent of control for "C=CC(=O)Nc1ccc(CN(C(=O)Nc2c(Cl)c(OC)cc(OC)c2Cl)c2cc(Nc3ccc(N4CCN(C)CC4)cc3)ncn2)cc1" is 100

Sure, the documented kinase still bound, per cent of control for "O=c1cc(N2CCOCC2)oc2c(-c3cccc4c3sc3ccccc34)cccc12" is 100

Sure, the documented kinase still bound, per cent of control for "CN(C)C/C=C/C(=O)Nc1ccc(C(=O)Nc2cccc(Nc3nccc(-c4cccnc4)n3)c2)cc1" is 77

Sure, the documented kinase still bound, per cent of control for "COc1ccc(N(C(=O)Oc2c(C)cccc2C)c2ccnc(Nc3ccc(N4CCN(C)CC4)cc3)n2)c(OC)c1" is 42
